experimental_details: chemical genetic growth profiling, strain panel (AID 1159580);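 further: tested at 20 µM; growth read once vehicle control cultures reached saturation at 30 °C; 1 = growth at the plate median or of vehicle wells; lower values mean less growth of the strain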
run_conditions: S. cerevisiae deletion strains, growth OD, locus YOR069W, strain VPS5, stronger effect = lower value
Out of some 5,500 compounds screened, about 2,000 (36%) were called active. About 18% were inconclusive and are not listed. Some of the results follow.
Task for the reader: assign each of the following molecules its reported normalized growth.
Give bare numbers.

Look over these answered cases.
COc1cccc2c(C)cc(=O)[nH]c12    0.965
C=C(C)[C@H]1COc2cc3oc(=O)ccc3cc2O1    0.687
CCC(c1ccc(O)cc1)C(CC)c1ccc(O)cc1 (configuration not stated)    0.999
CC(C)(O)[C@@H]1Cc2cc3ccc(=O)oc3cc2O1    1.01
C=C[C@H]1CN2CC[C@H]1C[C@@H]2[C@@H](OC(=O)OCC)c1ccnc2ccc(OC)cc12    1.01
CC(=O)O[C@@H]1CC2C(C)(C)C(=O)C=C[C@]2(C)C2CC[C@@]3(C)[C@H](c4ccoc4)OC(=O)[C@H]4O[C@]43[C@@]21C (some centres not stated)    1
CCC/C=C1\OC(=O)C2=C1CCC=C2    0.998
CCCCCCCCCCCC1=C(O)C(=O)C=C(O)C1=O    0.983

// each molecule listed below needs its normalized growth
1. NC(=O)NCCCC(N)C(=O)O (configuration not stated)
2. CC1(C)C(=O)C=C[C@@]2(C)C1C=C[C@]1(C)C2CC[C@@]2(C)[C@H](c3ccoc3)OC(=O)C3OC321 (some centres not stated)

1. 1.01
2. 0.992

// each molecule listed below needs its normalized growth
1. CC/C(=C(/CC)c1ccc(O)cc1)c1ccc(O)cc1
2. Cc1cc(OC(=O)c2c(C)cc(O)cc2O)cc(O)c1C(=O)O
3. NC(=O)CN1CCCC1=O
4. CC1(C)C(=O)C=C[C@@]2(C)C1CC(=O)[C@]1(C)C2CC[C@@]2(C)[C@H](c3ccoc3)OC(=O)[C@H]3O[C@]321 (some centres not stated)
5. O=C(O)C1=C[C@@H](O)[C@@H](O)[C@H](O)C1
6. Cc1[nH]ccc2c1[nH]c1cc(=O)ccc12

1
1.01
1.01
0.995
1.01
1.01

// each molecule listed below needs its normalized growth
1. CCC(=O)c1c(O)cc(O)cc1O
2. CNC(=O)Oc1cccc2c1OC(C)(C)O2
3. COc1ccccc1/C=C\C(=O)O
4. CC1(C)C=CC(=O)[C@@]2(C)C1CC(=O)[C@]1(C)C2CC[C@@]2(C)[C@H](c3ccoc3)OC(=O)C3OC321 (some centres not stated)

1
1.01
1.02
0.981

// each molecule listed below needs its normalized growth
1. CCCCCCCCCCCCCCCCCC(=O)OC(CC(=O)O)C[N+](C)(C)C (configuration not stated)
2. CC1(C)C2CC(=O)[C@]3(C)C(CC[C@@]4(C)[C@H](c5ccoc5)OC(=O)[C@H]5O[C@]543)[C@@]2(C)C(=O)C[C@H]1O (some centres not stated)

[1, 1.01]

###

experimental_details: chemical genetic growth profiling, strain panel (AID 1159580);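 further: tested at 20 µM; growth read once vehicle control cultures reached saturation at 30 °C; 1 = growth at the plate median or of vehicle wells; lower values mean less growth of the strain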
run_conditions: S. cerevisiae deletion strains, growth OD, locus YLR221C, strain rsa3, stronger effect = lower value
Out of some 5,500 compounds screened, about 2,000 (36%) were called active. Not shown: some 18% with an inconclusive outcome. This is one part of the list.
Task for the reader: assign each of the following compounds its reported normalized growth.
Answers are plain numbers.

Look over these answered cases.
COc1ccccc1/C=C\C(=O)O    0.988
CN[C@@H]1C(O)[C@@H](O[C@@H]2[C@@H](O)[C@H](O[C@H]3OC(CN)=CC[C@H]3N)[C@@H](N)C[C@H]2N)OC[C@]1(C)O (stereo partly specified)    0.984
CCCCCC(=O)Cc1cc(O)cc(O)c1C(=O)Oc1cc(CC(=O)CCCCC)c(C(=O)O)c(OC)c1    0.859
COC1=CC(=O)C(O)=C/C1=C\C=C\c1ccccc1    0.0618
CCCCCc1c2c(cc(O)c1C(=O)O)OC(=O)c1c(cc(OC)cc1C(=O)CCCC)O2    0.99
O=C1C=C2C(=CCOC2O)O1 (stereo unspecified)    0.716

// each compound listed below needs its normalized growth
1. CN[C@@H]1[C@@H](O)C(OC2[C@@H](N)C[C@@H](N)[C@H](O[C@H]3O[C@H](C(C)O)[C@@H](O)[C@H](O)[C@H]3N)[C@H]2O)OC[C@]1(C)O (stereo partly specified)
2. O=C1[O][Bi][O]c2ccccc21
3. Cc1ccccc1OCC(O)CO (stereo unspecified)
4. O=C(O[C@@H]1Cc2c(O)cc(O)cc2O[C@@H]1c1cc(O)c(=O)c2c(O)c(O)cc([C@H]3Oc4cc(O)cc(O)c4C[C@H]3O)c2c1)c1cc(O)c(O)c(O)c1
5. NS(=O)(=O)c1cc(C2(O)NC(=O)c3ccccc32)ccc1Cl (stereo unspecified)

0.974
1.02
0.982
0.699
0.981

###

Task for the reader: assign each of the following molecules its reported normalized growth.
experimental_details: chemical genetic growth profiling, strain panel (AID 1159580);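 further: tested at 20 µM; growth read once vehicle control cultures reached saturation at 30 °C; 1 = growth at the plate median or of vehicle wells; lower values mean less growth of the strain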
run_conditions: S. cerevisiae deletion strains, growth OD, locus YER123W, strain YCK3, stronger effect = lower value
In all, about 5,500 compounds went through this assay and about 2,000 (36%) were called active. Not shown: some 18% with an inconclusive outcome. Some of the results follow.

// each molecule listed below needs its normalized growth
1. CCNC(=S)N/N=C\c1cc(Cl)cc(Cl)c1O
2. O/N=C(/c1ccc(Cl)cc1)c1cc2ccccc2o1
3. Cc1cc(Oc2ccc(C(F)(F)F)cc2NS(C)(=O)=O)cc(C)c1Cl
4. Cc1nnc2n1N=C(c1ccc(CC(C)C)cc1)C(C)S2 (stereo not drawn)
5. FC(F)(F)c1ccc(N2CCc3ccccc3C2)c(NC(=S)Nc2cc(Cl)cc(Cl)c2)c1
6. O=C1Nc2ccccc2/C1=C/c1ccc(C(F)(F)F)cc1Cl
7. Oc1c(Cl)cc(Cl)cc1/C=N\NC(=S)Nc1cc(C(F)(F)F)cc(C(F)(F)F)c1
8. O=C1Nc2ccccc2/C1=C\c1c(Cl)cccc1Cl

1. 0.577 (active)
2. 0.883 (inactive)
3. 0.95 (inactive)
4. 0.941 (inactive)
5. 0.908 (inactive)
6. 0.939 (inactive)
7. 0.158 (active)
8. 0.945 (inactive)

// each molecule listed below needs its normalized growth
1. COc1cc(Br)cc(C=Nc2ccc(Sc3ccccc3)nc2Sc2ccccc2)c1O
2. FC(F)(F)c1cccc(NC(=S)NN=C2CCCCCC2)c1
3. O=C1Nc2ccccc2/C1=C/c1ccc(Oc2ccccc2)nc1
4. O=C1/C(=C/c2ccccn2)CCc2ccccc21
5. O=S(=O)(CS(=O)(=O)Oc1ccc(Cl)c(Cl)c1)Oc1ccc(Cl)c(Cl)c1

1: 0.831 (inactive); 2: 0.831 (inactive); 3: 0.885 (inactive); 4: 0.814 (inactive); 5: 0.989 (inactive)

###

experimental_details: chemical genetic growth profiling, strain panel (AID 1159580);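 further: tested at 20 µM; growth read once vehicle control cultures reached saturation at 30 °C; 1 = growth at the plate median or of vehicle wells; lower values mean less growth of the strain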
run_conditions: S. cerevisiae deletion strains, growth OD, locus YJL115W, strain asf1, stronger effect = lower value
Screen size: about 5,500 compounds; about 2,000 (36%) were called active. Another 18% or so got no clear call; they are omitted. Some of the results follow.
parameter: normalized growth
Give bare numbers.

C[C@]12CCC3c4ccc(O)cc4CCC3C1C[C@@H](O)[C@@H]2O (some centres not stated)    1.02
O=C(OC1Cc2c(O)cc(O)cc2OC1c1cc(=O)c(O)c2c(O)c(O)cc(C3Oc4cc(O)cc(O)c4CC3O)c2c1)c1cc(O)c(O)c(O)c1 (configuration not stated)    0.986
C[C@]12CCC3c4ccc(OS(=O)(=O)O)cc4CCC3C1CC[C@H]2O (some centres not stated)    0.947
CCCC(C)(COC(N)=O)COC(=O)NC(C)C (configuration not stated)    0.962
C[C@@H]([C@H](O)c1ccccc1)N(C)C    1.02
O=C(O[C@@H]1Cc2c(O)cc(O)cc2O[C@@H]1c1cc(O)c(=O)c2c(O)c(O)cc([C@H]3Oc4cc(O)cc(O)c4C[C@H]3O)c2c1)c1cc(O)c(O)c(O)c1    0.947
NC(=NCCC[C@H](N)C(=O)O)N[N+](=O)[O-]    1.04
Oc1cc2c(cc1O)C1c3ccc(O)c(O)c3OCC1(O)C2 (configuration not stated)    1

// each molecule listed below needs its normalized growth
1. CCOCN(C(=O)CCl)c1c(C)cccc1CC
2. NC(=O)c1ncn([C@@H]2O[C@H](CO)[C@@H](O)[C@H]2O)n1
3. CC(=O)Oc1ccc2c(c1OC(C)=O)OCC1(O)Cc3c(cc(OC(C)=O)c(OC(C)=O)c3OC(C)=O)C21 (configuration not stated)
4. COc1ccc2c(c1)CCC1C2CCC2(C)C1C[C@@H](O)C2O (some centres not stated)
5. OCC(O)C(O)C(O)C(O)C(O)CO (configuration not stated)

0.976
0.994
1.01
0.995
0.982
